- TARGET SYSTEM: human ether-à-go-go-related gene (hERG) potassium channel (human);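 further: peak tail current of the secondary pulse compared with the same well before compound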
- Sequence (Q12809 whole entry, looked up): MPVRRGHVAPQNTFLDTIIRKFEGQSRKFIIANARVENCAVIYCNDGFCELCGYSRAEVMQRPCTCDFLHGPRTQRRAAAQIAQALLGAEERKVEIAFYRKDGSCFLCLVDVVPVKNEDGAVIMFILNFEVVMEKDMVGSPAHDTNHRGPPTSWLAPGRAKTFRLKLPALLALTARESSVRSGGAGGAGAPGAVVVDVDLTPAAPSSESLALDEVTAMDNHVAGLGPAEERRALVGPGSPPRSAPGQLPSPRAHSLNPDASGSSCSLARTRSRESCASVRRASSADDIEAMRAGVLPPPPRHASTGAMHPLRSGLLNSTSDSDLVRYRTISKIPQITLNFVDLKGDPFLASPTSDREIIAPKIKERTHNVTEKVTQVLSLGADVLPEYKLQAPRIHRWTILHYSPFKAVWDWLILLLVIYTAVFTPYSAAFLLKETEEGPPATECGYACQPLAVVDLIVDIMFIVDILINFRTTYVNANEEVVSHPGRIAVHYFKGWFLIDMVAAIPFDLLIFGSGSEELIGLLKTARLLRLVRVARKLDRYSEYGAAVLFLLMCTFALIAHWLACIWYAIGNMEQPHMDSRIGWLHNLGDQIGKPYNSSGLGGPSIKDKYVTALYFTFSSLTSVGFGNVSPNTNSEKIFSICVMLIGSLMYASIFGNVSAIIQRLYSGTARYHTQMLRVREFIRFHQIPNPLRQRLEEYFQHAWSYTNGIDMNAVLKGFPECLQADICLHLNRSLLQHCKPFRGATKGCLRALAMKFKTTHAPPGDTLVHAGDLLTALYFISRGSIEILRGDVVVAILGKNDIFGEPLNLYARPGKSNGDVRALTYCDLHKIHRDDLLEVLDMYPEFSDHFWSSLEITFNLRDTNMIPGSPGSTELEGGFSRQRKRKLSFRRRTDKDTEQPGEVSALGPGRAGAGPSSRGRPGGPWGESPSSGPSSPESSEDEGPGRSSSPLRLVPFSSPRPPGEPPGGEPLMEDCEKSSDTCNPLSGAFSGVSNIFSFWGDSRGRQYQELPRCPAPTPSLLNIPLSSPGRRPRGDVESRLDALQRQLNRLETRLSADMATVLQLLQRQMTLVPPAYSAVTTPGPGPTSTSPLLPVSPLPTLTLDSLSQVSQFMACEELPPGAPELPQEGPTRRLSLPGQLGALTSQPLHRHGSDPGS
- ASSAY REMARKS: primary screen, population patch clamp on CHO cells stably expressing hERG; higher = less effect of the substance
Screen size: about 310,000 compounds; about 14,000 (4.5%) showed an effect of 50% or more. The effect is printed as a negative number. What follows is part of a selection rich in strong results, with near analogues and random picks from the rest.
Attribute: hERG current change (%, negative = inhibition) at 10uM
Numbers only; they are read as %.

| MOLECULE | VALUE UNITS | RECORDED RESULT |
| --- | --- | --- |
| O=C(c1cccs1)N1CCC(C(=O)N2CCN(Cc3ccc4c(c3)OCO4)CC2)CC1 | % | -59.9 |
| CC(C)=CCN1CCN(Cc2cccc3c2OCO3)CC1CCO (stereo not shown) | % | -12.6 |
| Cc1ccc(OCC(O)Cn2c(=N)n(Cc3ccccc3)c3ccccc32)cc1.Cl (stereo not shown) | % | -81.6 |
| CC(C)CN1CCN(Cc2cccc3c2OCO3)CC1CCO (stereo not shown) | % | -1.45 |
| CCOc1ccc(CN2CCN(Cc3cccc4c3OCO4)CC2CCO)cc1 (stereo not shown) | % | -77.4 |
| Cc1ccc(Cn2c(=N)n(CC(O)COc3ccccc3)c3ccccc32)cc1.Cl (stereo not shown) | % | -68.9 |
| O=C(C1CCCN1C(=O)c1cccs1)N1CCN(Cc2ccc3c(c2)OCO3)CC1 (stereo not shown) | % | -6.29 |
| O=C(O)c1ccc(OCC(O)Cn2c3ccccc3c3ccccc32)cc1 (stereo not shown) | % | -18.5 |

Task: What value of hERG current change (%, negative = inhibition) at 10uM has been recorded for this entry: CC(C)N1CCC(N2CCN(Cc3cc4c(cc3Cl)OCO4)CC2CCO)CC1 (stereo not shown)
Result: -18.5

Task: Give its hERG current change (%, negative = inhibition) at 10uM value. Item: `O=C(/C=C/c1cccs1)N1CCN(Cc2ccc3c(c2)OCO3)CC1`
Result: -47.9
